# study-target: T1, human C5a receptor (C5aR) on purified human neutrophils (human, UniProt P21730 1-350)
# T1 construct: whole, on cells
# T1 sequence (looked up): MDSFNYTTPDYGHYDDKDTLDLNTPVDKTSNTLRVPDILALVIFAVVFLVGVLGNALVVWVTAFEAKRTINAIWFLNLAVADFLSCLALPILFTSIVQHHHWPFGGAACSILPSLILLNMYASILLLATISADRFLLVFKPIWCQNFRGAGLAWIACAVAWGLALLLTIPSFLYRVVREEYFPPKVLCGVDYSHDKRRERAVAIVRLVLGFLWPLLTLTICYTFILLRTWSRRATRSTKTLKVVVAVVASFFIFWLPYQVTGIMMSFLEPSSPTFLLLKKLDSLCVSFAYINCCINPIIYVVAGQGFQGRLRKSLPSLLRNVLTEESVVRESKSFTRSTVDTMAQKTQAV
# experiment-description: displacement of 125I-C5a from purified human neutrophils by unlabeled recombinant human C5a
quantity-name: IC50 (µM)
Numbers only, in µM.

Report IC50 for human C5a (ligand, UniProt P01031 678-751, looked up, domain: C5a; Bought recombinant protein; also called recombinant C5a (Sigma); purified recombinant human C5a) TLQKKIEEIAAKYKHSVVKKCCYDGACVNNDETCEQRAARISLGPRCIKAFTECCVVASQLRANISHKDMQLGR please.
0.03
